System: Aspergillus fumigatus
Assay: Antifungal activity against Aspergillus fumigatus ATCC 90906
Format: functional, organism-based
Details: in the assay text read “Antifungal” for “Antibacterial”
property_label: MIC (µg/mL)
Your answer should be a plain number; it is taken to be in µg/mL.

The examples below pair each entry with its known result.
>  <smiles_notation>
[I-].c1ccc(CCCCC[n+]2cccc3sc4ccccc4c32)cc1

>  <result_number>
20

$$$$
>  <smiles_notation>
COc1ccc2c(c1)cc1sc3ccccc3c1[n+]2C.[I-]

>  <result_number>
20

$$$$
>  <smiles_notation>
C[n+]1c2ccc(C#N)cc2cc2sc3ccccc3c21.[I-]

>  <result_number>
20

$$$$

Could you now consider this next compound?
Input line: Which MIC reading was recorded for the compound C[n+]1c2ccc(Cl)cc2cc2sc3ccccc3c21.[I-] ?
Output line: 4

Recorded values, source ChEMBL document CHEMBL1145530.
